Origin of measurements: patent US3995021A

test system: antibodies raised with the product of Example 1; experiment: Radioimmune assay: cross-reactivity of other barbituric acids (competitive inhibition of tritiated phenobarbital binding to antibody); conditions: at 50% inhibition, 4° C, 2 hours
Below: a set of entries, each annotated with reported Percent Cross-Reactivity.
quantity: Percent Cross-Reactivity (%)

[[record]]
compound = "C=CCC1(C(C)CCC)C(=O)NC(=O)NC1=O (stereo not shown)"
quantity_unit = "%"
test_result = 1.8

[[record]]
compound = "CCC1(CCC(C)C)C(=O)NC(=O)NC1=O"
quantity_unit = "%"
test_result = 0.6

[[record]]
compound = "CCCC(C)C1(CC)C(=O)NC(=O)NC1=O (stereo not shown)"
quantity_unit = "%"
test_result = 2.2

[[record]]
compound = "CCCC(C)C1(CC)C(=O)NC(=S)NC1=O (stereo not shown)"
quantity_unit = "%"
test_result = 0.2

